test: yeast display, Sf9 membrane polyspecificity reagent, FACS + sequencing; frameworks hold sequencing errors
MEASURED_PROPERTY: polyreactivity (PSR sort gate)

Known polyreactivity (PSR sort gate) results, listed for orientation:
SEQUENCE	RESULT
QVQLVESGGGLVQAGGSLRLSCAASGFTFSTNAMAWYRQAPGKERELVAAITSSGGSTYYADSVKGRFTISRDNAKNTVYLQMNSLKPEDTAVYYCATGPSQVGGDYWGQGTQVTVSS	high polyreactivity
QVQLVESRGGLVQAGGSLRLSCPASGSTFVSNAMGWYRQAPGKERELVAAISKSGGSTYYADSVKGRFTISRDNAKNTVYLQMISLKPEDTAVYYCAKYNAKSFYGQYDYWGQGTQVTVSS	high polyreactivity
QVQLVESGGGLVQAGGSLRLSCAASGSTFGQYAMGWYRQAPGKERELVAAISSGGRTNYADSVKGRFTISRDNAKNTVYLQMNSLKPEDTAVYYCAARYYFPFRRFRRMDYWGQGTQVTVSS	high polyreactivity
QVQLVESGGGLVQAGGRLRLSCAASGGIFGSYAMGWYRQAPGKERELVADITQSGGRTRYADSVKGRFTISRDNAKNTVYLQMNSLKPEDTAVYYCNAQDVDSGDDYDYWGQGTQVTVSS	low polyreactivity

Turning now to a further sequence:
Entry QVQLVESGGGLVQAGGSLRLSCAASGRIIANYAMGWYRQAPGKEREVVAGISSGGSTNYADSVKGRFTISRDNAKNPVYLQMNSLKPEDTAVYYCAKDPAYRVSKYDYWGQGTQVTVSS ; polyreactivity (PSR sort gate) = low polyreactivity
